pIC50: −log10 of the molar value.
The entries below pair compounds with pIC50 values for Heat shock protein HSP 90-alpha (Homo sapiens, UniProt P07900), as found in several publications.
Where pIC50 equals or exceeds 6, the correct label is yes (1); where it does not, the label is no (0).

ITEM_SMILES | CLASS_LABEL
CC(C)c1cc(C(=O)N2CCc3cc(NC(=O)CCCCCC(=O)NO)ccc32)c(O)cc1O | yes (1)
Clc1ccc(C2N(Cc3ccccc3)CCN2Cc2ccccc2)c(Cl)n1 | yes (1)
O=c1c2ccccc2oc2cnccc12 | no (0)
CC(C)c1cc(C(=O)N2CCc3cc(NC(=O)CCCC(=O)NO)ccc32)c(O)cc1O | yes (1)
O=c1c2ccccc2sc2cnccc12 | no (0)
O=[N+]([O-])c1ccc(C2N(Cc3ccccc3)CCN2Cc2ccccc2)s1 | yes (1)
Fc1ccc(Cl)cc1C1N(Cc2ccccc2)CCN1Cc1ccccc1 | yes (1)
